// data source = patent US20170247326A1

molecular target: SMYD2 (Homo sapiens); construct: Full length SMYD2 (NP_064582.2) was cloned; His6 (N, cleaved yes); FLAG (N); made in house; host or cells: Sf9 insect cells; test: SMYD2 biochemical assay (3H-SAM, biotinylated peptide substrate, Flashplate); conditions: Table 4; average of n = 1 to n = 50; read-out: SMYD2 Biochem IC50
pIC50: −log10 of the molar value.
result-type: pIC50

molecule="C[C@H]1CN(S(=O)(=O)CCN)C[C@H]1NC(=O)c1cc(C2CC2)cnn1 (racemic)" result="< 4.30"
molecule="CNCCS(=O)(=O)N1C[C@H](C)[C@H](NC(=O)c2cc(C3CC3)cnn2)C1 (racemic)" result="< 4.30"

Now consider a different molecule.
State, in one line, measured pIC50 of C[C@H]1CN(S(=O)(=O)CCCN)C[C@H]1NC(=O)c1cc(C2CC2)cnn1 (racemic)
< 4.30

###

molecular target: SMYD2 (Homo sapiens); construct: Full length SMYD2 (NP_064582.2) was cloned; His6 (N, cleaved yes); FLAG (N); made in house; host or cells: Sf9 insect cells; experiment: SMYD2 biochemical assay (3H-SAM, biotinylated peptide substrate, Flashplate); conditions: Table 3; average of n = 1 to n = 50; read-out: SMYD2 Biochem IC50
result-type: IC50 (µM)
Number only, in µM; omit the unit.

Solved entries:
molecule="C[C@@H]1CN(Cc2ccc(OCc3ccccc3)cc2)C[C@@H]1NC(=O)c1cc(C2CC2)cnn1 (racemic) [compound 104]" result_type=IC50 result_number=0.0917
molecule="CC(C)N1C[C@H](C)[C@H](NC(=O)c2cc(C3CC3)ncn2)C1 (racemic) [compound 50]" result_type=IC50 result_number=16.7

Now turn to the next molecule.
Give IC50 for the following molecule: CCc1cnnc(C(=O)N[C@@H]2CN(C(C)C)C[C@@H]2C)c1 (racemic) [compound 96]
5.09

###

// reported IC50 per item
biological target: SMYD2 (Homo sapiens, UniProt Q9NRG4); construct: Full length SMYD2 (NP_064582.2) was cloned; His6 (N, cleaved yes); FLAG (N); made in house; host or cells: Sf9 insect cells; test: SMYD2 biochemical assay (3H-SAM, biotinylated peptide substrate, Flashplate); conditions: Table 3; average of n = 1 to n = 50; read-out: SMYD2 Biochem IC50
Sequence (Q9NRG4 whole entry): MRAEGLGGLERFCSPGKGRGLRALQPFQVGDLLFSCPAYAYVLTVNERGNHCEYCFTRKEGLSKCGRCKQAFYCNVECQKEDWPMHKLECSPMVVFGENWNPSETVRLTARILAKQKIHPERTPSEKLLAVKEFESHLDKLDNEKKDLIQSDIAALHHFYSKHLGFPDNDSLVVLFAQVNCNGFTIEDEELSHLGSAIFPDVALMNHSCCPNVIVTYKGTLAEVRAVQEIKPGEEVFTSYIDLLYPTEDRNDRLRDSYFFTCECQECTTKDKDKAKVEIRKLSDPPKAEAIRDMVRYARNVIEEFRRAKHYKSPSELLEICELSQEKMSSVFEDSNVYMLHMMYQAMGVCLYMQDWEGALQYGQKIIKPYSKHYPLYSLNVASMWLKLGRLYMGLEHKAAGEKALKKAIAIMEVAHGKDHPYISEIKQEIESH

Look over these answered cases.
compound="CC(C)N1C[C@H](C)[C@H](NC(=O)c2nc(C3CC3)cs2)C1 (racemic) [compound 35]" result_type=IC50 result="> 50 µM"
compound="CN(C)C1CCC(NC(=O)c2cn(C3CC3)nn2)C1 (stereo not drawn) [compound 122]" result_type=IC50 result="> 50 µM"

Read the next record carefully.
For CC(C)N1C[C@H](C)[C@H](NC(=O)c2noc(C3CC3)n2)C1 (racemic) [compound 38] , write its IC50.
> 50 µM
